The measurements presented in this section are drawn from patent US9018211B2.

Entries and their measured pIC50 follow.
target of assay: Kir1.1 (ROMK1) (Homo sapiens (Human))
Sequence (P48048 whole entry, species assumed): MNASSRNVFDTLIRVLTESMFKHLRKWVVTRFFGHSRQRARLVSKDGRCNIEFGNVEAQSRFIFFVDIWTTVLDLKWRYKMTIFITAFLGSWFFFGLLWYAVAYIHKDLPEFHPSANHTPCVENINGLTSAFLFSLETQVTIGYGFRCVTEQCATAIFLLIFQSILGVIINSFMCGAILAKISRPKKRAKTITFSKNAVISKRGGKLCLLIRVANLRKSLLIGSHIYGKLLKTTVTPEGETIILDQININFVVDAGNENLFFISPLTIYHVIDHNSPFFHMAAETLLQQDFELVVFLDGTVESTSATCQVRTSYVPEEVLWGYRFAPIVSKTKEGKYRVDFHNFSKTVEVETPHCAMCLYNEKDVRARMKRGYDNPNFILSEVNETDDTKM
assay overview: ROMK Electrophysiology Assay (IonWorks Quattro whole cell voltage clamp)
assay context: Chinese hamster ovary cells stably expressing Kir1.1; block at voltage step to 0 mV, 6 min compound incubation
pIC50: −log10 of the molar value.
quantity name: pIC50

1) Cc1c(CCN2CCN(CC(O)c3ccc4c(c3C)COC4=O)CC2)ccc2c1COC2=O (stereo not shown) :: 7.89
2) O=C1OCc2c1ccc(C(O)CN1CCN(CC(O)c3ccc4c(c3Cl)COC4=O)CC1)c2Cl (stereo not shown) :: 8.15
3) Cc1c(C(O)CN2CCN(CC3CCc4c3ccc3c4COC3=O)CC2)ccc2c1COC2=O (stereo not shown) :: 7.85
4) Cc1c(C(O)CN2CCN(CC3CCc4c3ccc(F)c4C#N)CC2)ccc2c1COC2=O (stereo not shown) :: 7.64

---

target of assay: hROMK (hKir1.1) (Homo sapiens (Human), UniProt P48048)
Sequence (P48048 whole entry): as the sequence (P48048 whole entry, species assumed) above
assay overview: Thallium Flux Assay
assay context: HEK293 cells stably expressing hROMK; FLIPR-Tetra, 30 min incubation
Description: Several assays may be used to measure functional inhibition of the ROMK channel by compounds of the instant invention. […] Another ROMK functional assay makes use of the ability of thallium to permeate through open ROMK channels and increase the fluorescence of a dye previously loaded into the cells. Under control conditions, cells loaded with dye and exposed to thallium-containing medium display a time-dependent increase in fluorescence, the rate of which depends on number of functional channels. […]
Kindly apply the following: Satisfied if IC50 is less than 10 nM, Not satisfied in every other case.

1) O=C1OCc2c1ccc(C(O)CN1CCN(CC(O)c3ccc4c(c3Cl)COC4=O)CC1)c2Cl (centres unmarked) :: Not satisfied
2) Cc1c(CCN2CCN(CC(O)c3ccc4c(c3C)COC4=O)CC2)ccc2c1COC2=O (centres unmarked) :: Satisfied
3) Cc1c(C(O)CN2CCN(CC3CCc4c3ccc(F)c4C#N)CC2)ccc2c1COC2=O (centres unmarked) :: Not satisfied
4) Cc1c(C(O)CN2CCN(CC3CCc4c3ccc3c4COC3=O)CC2)ccc2c1COC2=O (centres unmarked) :: Satisfied
5) COc1cc(C(O)CN2CCN(CCc3ccc4c(c3C)COC4=O)CC2)c(F)cc1C#N (centres unmarked) :: Not satisfied

---

Listed next: entries and their corresponding pIC50.
target of assay: hROMK1 (Kir1.1) (Homo sapiens (Human))
Sequence (P48048 whole entry): as the sequence (P48048 whole entry, species assumed) above
assay overview: 86Rb+ Efflux Assay
assay context: CHO-DHFR- cells stably expressing hROMK1; 35 min incubation
pIC50: −log10 of the molar value.
quantity name: pIC50

1) Cc1c(C(O)CN2CCN(CC3CCc4c3ccc3c4COC3=O)CC2)ccc2c1COC2=O (centres unmarked) :: 7.44
2) O=C1OCc2c1ccc(C(O)CN1CCN(CC(O)c3ccc4c(c3Cl)COC4=O)CC1)c2Cl (centres unmarked) :: 7.06
3) COc1cc(C(O)CN2CCN(CCc3ccc4c(c3C)COC4=O)CC2)c(F)cc1C#N (centres unmarked) :: 6.89
4) Cc1c(CCN2CCN(CC(O)c3ccc4c(c3C)COC4=O)CC2)ccc2c1COC2=O (centres unmarked) :: 7.34
5) Cc1c(C(O)CN2CCN(CC3CCc4c3ccc(F)c4C#N)CC2)ccc2c1COC2=O (centres unmarked) :: 7.33
